These measurements were taken from paper PMC5215716.

Biological target: LepB (Mycobacterium tuberculosis, UniProt P9WKA1)
Construct: we used purified membrane fractions to develop an in vitro assay for signal peptide cleavage; Triton X-114 membrane fraction
Sequence (P9WKA1 1-294): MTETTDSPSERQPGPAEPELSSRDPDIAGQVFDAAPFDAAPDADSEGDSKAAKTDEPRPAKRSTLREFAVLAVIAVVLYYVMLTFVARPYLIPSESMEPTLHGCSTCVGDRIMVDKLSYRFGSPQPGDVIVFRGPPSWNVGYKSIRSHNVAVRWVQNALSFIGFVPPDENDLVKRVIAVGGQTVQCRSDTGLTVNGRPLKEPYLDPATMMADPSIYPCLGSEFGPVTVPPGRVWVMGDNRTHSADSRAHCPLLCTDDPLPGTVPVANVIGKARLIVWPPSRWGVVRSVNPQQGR
Assay: LepB membrane assay (fluorogenic signal peptide cleavage by cell membrane fraction)
Conditions: M. tuberculosis H37Rv cell membrane fraction, 2 μM peptide substrate, 4 h at 37 °C
pIC50: −log10 of the molar value.
pIC50: recorded values
measurement label: pIC50

# compound, measurement label, value qualifier, value
records = [
    ("C/C(=N\\NS(=O)(=O)c1ccccc1)c1ccccn1", "pIC50", "=", 4.47),
    ("O=C(N/N=C/c1cccc2cccnc12)c1ccn(Cc2ccc(Cl)cc2)n1", "pIC50", "<", 3.70),
    ("C/C(=N\\Nc1nc(C)cc(C)n1)c1cccs1", "pIC50", "=", 3.92),
    ("C/C(=N\\NC(=O)c1ccc(N2CCCC2=O)cc1)c1ccccn1", "pIC50", "=", 4.59),
    ("Cc1cnn(-c2cc(N/N=C/c3ccccc3O)ncn2)c1", "pIC50", "<", 3.70),
    ("COc1ccc(CC(=O)N/N=C(\\C)c2ccccn2)cc1OC", "pIC50", "<", 3.70),
    ("C/C(=N\\NC(=O)C1CCCN(S(=O)(=O)c2ccccc2)C1)c1ccccn1 (centres unmarked)", "pIC50", "=", 3.74),
    ("Cc1cc(C)nc(NN=C(c2ccccc2)c2ccccc2)n1", "pIC50", "<", 3.70),
    ("Cc1ccc(-c2cc(C(=O)N/N=C/c3ccccn3)[nH]n2)cc1", "pIC50", "<", 3.70),
    ("Oc1ccc(/C=N/Nc2ccc3ccccc3n2)c(O)c1", "pIC50", "<", 3.70),
    ("Cc1nc2ccccc2nc1N/N=C/c1c(O)ccc2ccccc12", "pIC50", "=", 3.89),
    ("C/C(=N\\Nc1nc(C)cc(C)n1)c1cccc(O)c1", "pIC50", "=", 3.85),
    ("C/C(=N\\NC(=O)C1CC1)c1ccccn1", "pIC50", "<", 3.70),
    ("O=[N+]([O-])c1ccc(O)c(/C=N/Nc2ccccn2)c1", "pIC50", "=", 4.92),
    ("Oc1ccccc1/C=N/Nc1nc(-c2ccccc2)cs1", "pIC50", "<", 3.70),
    ("Cc1cc(C)nc(-n2nc(C)c(Cc3ccccc3C)c2O)n1", "pIC50", "<", 3.70),
    ("CC1=NN(c2nc(C)cc(C)n2)C(=O)C1C (centres unmarked)", "pIC50", "<", 3.70),
    ("C/C(=N\\Nc1nnc2c(n1)[nH]c1ccc(C)cc12)c1ccccn1", "pIC50", "=", 4.06),
    ("C/C(=N\\Nc1nc(C)cc(C)n1)c1ccccc1", "pIC50", "<", 3.70),
    ("Cc1nc2ccccc2nc1N/N=C/c1ccc(O)c(C)c1O", "pIC50", "<", 3.70),
]
